# Read-out: Lipase C (LIPC), LIPC (gene 3990)
# assayInfo: LTEA_HepaRG_LIPC: Life Technologies and Expression Analysis (LTEA) Assay for Lipase C (LIPC) using HepaRG (AID 2283514)
# conditionLabel: mRNA level, 48 h; actives raise or lower the signal
The source made the active and inactive calls. The calls were made as follows: active = hit-call score of the fitted dose curve at least 0.9, where 1 is the maximum; inactive = score below 0.9.
Can you answer with just one of these options? Y for active, N for inactive

1. CCCCCCCCCCCCCCC = N
2. CS(=O)(=O)c1ccc([C@@H](CC2CCCC2)C(=O)Nc2cnccn2)cc1Cl = Y
3. CCCCc1oc2ccccc2c1C(=O)c1cc(I)c(OCCN(CC)CC)c(I)c1 = Y
4. N=C(N)c1ccc(OCCCCCOc2ccc(C(=N)N)cc2)cc1 = Y
5. O=C(c1ccccc1)c1ccccc1 = N

We now examine a further compound.
Please let me know the test result on file for CC(=O)Nc1ccc(O)cc1 .
N

---

# Read-out: Monocyte Chemoattractant Protein-1 (MCP1), CCL2 (gene 6347)
# assayInfo: BSK_CASM3C_MCP1: BioMAP Diversity Plus: CASM3C Assay for Monocyte Chemoattractant Protein-1 (MCP1) Biomarker Activity (AID 2283046);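 also: MCP-1 level quantified by ELISA 24 h after dosing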
# conditionLabel: primary human coronary artery smooth muscle cells; actives raise or lower the signal
Active and inactive are the calls of the source. The calls were made as follows: active = hit-call score of the fitted dose curve at least 0.9, where 1 is the maximum; inactive = score below 0.9.
Can you answer with just one of these options? active, inactive

1. OCCN1CN(CCO)CN(CCO)C1 = inactive
2. O=P(O)(O)CCC(F)(F)C(F)(F)C(F)(F)C(F)(F)C(F)(F)C(F)(F)F = inactive
3. O=C(NCc1ncc(C(F)(F)F)cc1Cl)c1c(Cl)cccc1Cl = inactive
4. O=C1OC2(c3ccccc31)c1cc(I)c(O)c(I)c1Oc1c2cc(I)c(O)c1I = active
5. CS(=O)(=O)c1ccc([C@@H](CC2CCCC2)C(=O)Nc2cnccn2)cc1Cl = inactive

Please let me know the test result on file for C=CC(C)(CCC=C(C)C)OC(C)=O (configuration not stated) .
active

Same again, this time with CCOC(=O)CN[C@@H](C(=O)N1CC[C@H]1C(=O)NCc1ccc(/C(N)=N/O)cc1)C1CCCCC1
inactive

Same again, this time with O=S(=O)(O)C(F)(F)C(F)(F)C(F)(F)C(F)(F)C(F)(F)C(F)(F)C(F)(F)C(F)(F)C(F)(F)C(F)(F)F
inactive

Same again, this time with COc1cc(OC)nc(NC(=O)NS(=O)(=O)Nc2ccccc2C(=O)N(C)C)n1
inactive

Same again, this time with CCCCC=O
inactive

Same again, this time with O=C(O)C(F)(F)OC(F)(F)C(F)(F)OC(F)(F)C(F)(F)OC(F)(F)C(F)(F)C(F)(F)C(F)(F)F
inactive

Same again, this time with CN(C)CCOC(c1ccccc1)c1ccccc1
inactive

Same again, this time with O=C(NO)c1ccccc1
inactive

Same again, this time with COc1cccc(O)c1
inactive

Same again, this time with O=C1c2ccc(O)c(O)c2C(=O)c2c(O)ccc(O)c21
inactive

---

# testedSystem: Transcription factor Sp1 (Homo sapiens) (UniProt P08047)
# Sequence (P08047 whole entry, looked up): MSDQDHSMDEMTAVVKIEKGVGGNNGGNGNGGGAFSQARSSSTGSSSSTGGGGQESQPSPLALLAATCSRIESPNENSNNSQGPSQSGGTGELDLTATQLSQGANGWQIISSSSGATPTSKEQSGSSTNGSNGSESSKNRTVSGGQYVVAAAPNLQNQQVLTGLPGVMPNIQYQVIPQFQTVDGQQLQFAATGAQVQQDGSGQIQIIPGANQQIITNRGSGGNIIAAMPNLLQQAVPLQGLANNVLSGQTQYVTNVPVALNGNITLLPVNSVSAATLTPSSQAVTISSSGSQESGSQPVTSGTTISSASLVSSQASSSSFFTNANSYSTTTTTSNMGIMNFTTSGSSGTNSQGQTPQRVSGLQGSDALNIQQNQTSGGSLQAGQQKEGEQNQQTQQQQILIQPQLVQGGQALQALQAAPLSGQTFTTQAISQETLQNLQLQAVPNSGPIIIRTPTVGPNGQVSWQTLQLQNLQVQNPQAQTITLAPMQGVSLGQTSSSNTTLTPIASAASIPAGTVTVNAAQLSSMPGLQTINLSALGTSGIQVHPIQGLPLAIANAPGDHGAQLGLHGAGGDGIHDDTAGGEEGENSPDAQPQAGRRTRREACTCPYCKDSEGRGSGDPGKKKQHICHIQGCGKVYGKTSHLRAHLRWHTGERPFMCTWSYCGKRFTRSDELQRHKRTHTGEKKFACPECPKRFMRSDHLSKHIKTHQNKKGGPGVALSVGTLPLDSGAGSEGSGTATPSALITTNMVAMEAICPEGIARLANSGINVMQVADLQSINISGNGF
# assayInfo: ATG_Sp1_CIS: Attagene CIS-FACTORIAL HepG2 Assay for human Specificity Protein 1 (Sp1) (AID 2282961)
# conditionLabel: HepG2 Sp1 cis-reporter transcription, actives raise or lower the signal
Calls of active or inactive are those of the source. The calls were made as follows: active = hit-call score of the fitted dose curve at least 0.9, where 1 is the maximum; inactive = score below 0.9.
Can you answer with just one of these options? YES (active), NO (inactive)

1) Cc1cccc2c1ccc1ccccc12 = NO

Please let me know the test result on file for Oc1ccc(Cc2ccccc2O)cc1 .
NO

Same again, this time with C/C=C/C(=O)C1=C(C)CCCC1(C)C
YES

Same again, this time with CCc1cccc(CC)c1N(COC)C(=O)CS(=O)(=O)O
NO

Same again, this time with O=C(NCc1ncc(C(F)(F)F)cc1Cl)c1c(Cl)cccc1Cl
NO

Same again, this time with COc1cc(OC)nc(NC(=O)NS(=O)(=O)Nc2ccccc2C(=O)N(C)C)n1
NO

Same again, this time with O=P(O)(O)CCC(F)(F)C(F)(F)C(F)(F)C(F)(F)C(F)(F)C(F)(F)C(F)(F)C(F)(F)F
NO

Same again, this time with O=C1c2ccc(O)c(O)c2C(=O)c2c(O)ccc(O)c21
NO

Same again, this time with FC(F)(F)C(F)(F)C(F)(F)C(F)(F)I
NO

Same again, this time with O=C1NS(=O)(=O)c2ccccc21
NO

Same again, this time with CCCCC(CC)C(=O)O (stereo not drawn)
NO

Same again, this time with CCCCCCCCCCCC(=O)NCCCN(C)C
NO

Same again, this time with CCCCCCCCCCCCOC(=O)c1cc(O)c(O)c(O)c1
NO

---

# assayInfo: STM_H9_CystineISnorm_perc: Stemina devTOX quickPredict H9 human embryonic stem cell (hESC)-based Assay for Cystine (CYSS) Metabolite Biomarker, Normalized (AID 2283713)
The source made the active and inactive calls. Rule for the calls: active = hit-call score of the fitted dose curve at least 0.9, where 1 is the maximum; inactive = score below 0.9.
readoutType: AC50

Some solved entries appear below for comparison.
1) CN(Cc1cnc2nc(N)nc(N)c2n1)c1ccc(C(=O)N[C@@H](CCC(=O)O)C(=O)O)cc1 = 87.3 nM (active)
2) Cc1[nH]nc2c1N=C(c1ccccc1Cl)c1cc([N+](=O)[O-])ccc1N2 = 1620 nM (active)
3) O=C(CCCN1CCC(O)(c2ccc(Cl)cc2)CC1)c1ccc(F)cc1 = inactive
4) OCC(CO)(CBr)CBr = inactive

Next compound, AC50 to be filled in.
Which AC50 value is on record for CCCCC(CC)C(=O)O (stereo not given) ?
inactive

---

# Read-out: Plasminogen activator inhibitor-1 (PAI1), SERPINE1 (gene 5054)
# assayInfo: BSK_hDFCGF_PAI1: BioMAP Diversity Plus: hDFCGF Assay for Plasminogen activator inhibitor-1 (PAI1) Biomarker Activity (AID 2283066)
# conditionLabel: primary human foreskin fibroblasts; actives raise or lower the signal
Activity calls are given as the source filed them. The calls were made as follows: active = hit-call score of the fitted dose curve at least 0.9, where 1 is the maximum; inactive = score below 0.9.
readoutType: AC50

Some solved entries appear below for comparison.
1. C[C@]12CC[C@@H]3c4ccc(O)cc4CC[C@H]3[C@@H]1C[C@@H](O)[C@@H]2O = inactive
2. C=CC(C)(CCC=C(C)C)OC(C)=O (configuration not stated) = 29.8 µM (active)
3. O=C1c2ccc(O)c(O)c2C(=O)c2c(O)ccc(O)c21 = inactive
4. CCCCC=O = inactive
5. CC1=NN(c2ccccc2)C(=O)C1 = inactive
6. O=C(O)C(F)(F)OC(F)(F)C(F)(F)OC(F)(F)C(F)(F)OC(F)(F)C(F)(F)C(F)(F)C(F)(F)F = 11.4 µM (active)
7. N=C(N)c1ccc(OCCCCCOc2ccc(C(=N)N)cc2)cc1 = 28.5 µM (active)
8. Cc1ccc(N=Nc2c(O)ccc3ccccc23)c(C)c1 = inactive
9. Cc1cccc2c1ccc1ccccc12 = inactive
10. O=C1OC2(c3ccccc31)c1cc(I)c(O)c(I)c1Oc1c2cc(I)c(O)c1I = 5.52 µM (active)

Which AC50 value is on record for CCCCc1oc2ccccc2c1C(=O)c1cc(I)c(OCCN(CC)CC)c(I)c1 ?
4.81 µM (active)

Same again, this time with Cc1ccc(C(=O)c2ccccc2)cc1
20 µM (active)

---

# assayInfo: ATG_ISRE_CIS: Attagene CIS-FACTORIAL HepG2 Assay for human Interferon Regulatory Factor 1 (IRF1) binding to an Interferon-Stimulated Response Element (ISRE) (AID 2282948)
# conditionLabel: HepG2 ISRE cis-reporter (Attagene), mRNA transcription readout; actives raise or lower the signal
The source made the active and inactive calls. The calls were made as follows: active = hit-call score of the fitted dose curve at least 0.9, where 1 is the maximum; inactive = score below 0.9.
Can you answer with just one of these options? label 1 for active, label 0 for inactive

1) CCCCCCCCCCCC[N+](C)(C)CCCCCCCCCCCC = label 1
2) C[N+](C)(CCCNS(=O)(=O)CCC(F)(F)C(F)(F)C(F)(F)C(F)(F)C(F)(F)C(F)(F)F)CC(=O)[O-] = label 0
3) CCCCC(CC)C(=O)O (stereo not drawn) = label 0

We now examine a further compound.
Please let me know the test result on file for CCCCCCCC(OC)OC .
label 0

---

# testedSystem: Cellular tumor antigen p53 (Homo sapiens)
# assayInfo: ATG_p53_CIS: Attagene CIS-FACTORIAL HepG2 Assay for human p53 Transcription Factor (AID 2282994)
# conditionLabel: HepG2 p53 cis-element reporter, Attagene mRNA; actives raise or lower the signal
Activity calls are given as the source filed them. Rule for the calls: active = hit-call score of the fitted dose curve at least 0.9, where 1 is the maximum; inactive = score below 0.9.
Can you answer with just one of these options? active, inactive

Solved cases below.
1. CCCCCc1ccc(O)cc1 = inactive
2. Cc1ccc(S(=O)(=O)O)cc1 = inactive

Please let me know the test result on file for CC1=NN(c2ccccc2)C(=O)C1 .
inactive

Same again, this time with OCC1CCC(CO)CC1 (configuration not stated)
inactive

Same again, this time with CCC(C)c1nccnc1OC (configuration not stated)
inactive

---

# Read-out: Vascular cell adhesion molecule 1 (VCAM1), VCAM1 (gene 7412)
# assayInfo: BSK_4H_VCAM1: BioMAP Diversity Plus: 4H Assay for Vascular cell adhesion molecule 1 (VCAM1) Biomarker Activity (AID 2283033)
# conditionLabel: primary human endothelial cells (HUVEC); actives raise or lower the signal
The source made the active and inactive calls. The calls were made as follows: active = hit-call score of the fitted dose curve at least 0.9, where 1 is the maximum; inactive = score below 0.9.
Can you answer with just one of these options? 1 (yes) (active), 0 (no) (inactive)

Solved cases below.
1) OCCN1CN(CCO)CN(CCO)C1 = 1 (yes)
2) CCC(C)c1ccccc1O (stereo not given) = 0 (no)
3) O=C(NCc1ncc(C(F)(F)F)cc1Cl)c1c(Cl)cccc1Cl = 0 (no)
4) Cc1cccc2c1ccc1ccccc12 = 0 (no)

Please let me know the test result on file for CCOC(=O)CN[C@@H](C(=O)N1CC[C@H]1C(=O)NCc1ccc(/C(N)=N/O)cc1)C1CCCCC1 .
0 (no)

Same again, this time with CC[N+](CC)(CC)Cc1ccccc1
0 (no)

Same again, this time with O=C(O)CCC(F)(F)C(F)(F)C(F)(F)C(F)(F)C(F)(F)C(F)(F)F
0 (no)

Same again, this time with CC1=NN(c2ccccc2)C(=O)C1
0 (no)

Same again, this time with O=S(=O)(O)C(F)(F)C(F)(F)C(F)(F)C(F)(F)C(F)(F)C(F)(F)C(F)(F)C(F)(F)C(F)(F)C(F)(F)F
0 (no)

Same again, this time with CCCCc1oc2ccccc2c1C(=O)c1cc(I)c(OCCN(CC)CC)c(I)c1
1 (yes)

Same again, this time with CCCCC(CC)C(=O)OCCOCCOCCOCCOC(=O)C(CC)CCCC (stereo not given)
0 (no)

Same again, this time with CC(=O)Nc1ccc(O)cc1
0 (no)

Same again, this time with CCCCC=O
0 (no)

Same again, this time with O=C(NO)c1ccccc1
0 (no)
